Listed next: entries and their corresponding Activity.
target: Myeloblastin (Homo sapiens) (UniProt P24158)
Sequence (whole entry): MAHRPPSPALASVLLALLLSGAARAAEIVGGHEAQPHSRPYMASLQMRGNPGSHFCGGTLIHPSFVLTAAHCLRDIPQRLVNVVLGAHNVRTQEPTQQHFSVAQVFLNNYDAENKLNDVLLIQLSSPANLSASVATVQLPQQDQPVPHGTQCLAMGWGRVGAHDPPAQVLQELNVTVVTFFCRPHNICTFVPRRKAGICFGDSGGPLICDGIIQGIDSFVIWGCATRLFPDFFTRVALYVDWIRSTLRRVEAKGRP
method_description: Inhibition of human proteinase 3

molecule_smiles: CCC1(CC)C(=O)N(c2ccc(CSc3nc4ccccc4s3)nc2)C1=O
Activity [M⁻¹ s⁻¹]: 4080

molecule_smiles: CCC1(CC)C(=O)N(c2ccc(CSc3nc4ccccc4o3)cc2)C1=O
Activity [M⁻¹ s⁻¹]: 29.6

molecule_smiles: CCC1(CC)C(=O)N(c2ccc(CSc3ccccc3)cc2)C1=O
Activity [M⁻¹ s⁻¹]: 122

molecule_smiles: CCC1(Cc2ccccc2)C(=O)N(c2ccccc2)C1=O
Activity [M⁻¹ s⁻¹]: 20.2

molecule_smiles: CCC1(CC)C(=O)N(c2ccccc2CSc2nc3ccccc3o2)C1=O
Activity [M⁻¹ s⁻¹]: 361

molecule_smiles: CCC1(CC)C(=O)N(c2ccc(CSc3nc4cc(C(=O)O)ccc4o3)cc2)C1=O
Activity [M⁻¹ s⁻¹]: 689
